These entries and their values trace back to the supplement of paper PMC6522484.

- Test system: HCT116
- testSummary: cell viability (CellTiter-Glo) relative to plate median (fraction of plate median); higher = more viable cells
- runParameters: 5 µM; treatment time 24 h; reporter: TCF4/Wnt
Note to self: cell viability under 1 means MET, ties and anything higher get NOT MET.

{"smilesRecord": "CC[C@]1(O)C[C@@H]2CN(CCc3c([nH]c4ccccc34)[C@@](C(=O)OC)(c3cc4c(cc3OC)N(C)[C@H]3[C@@](O)(C(=O)OC)[C@H](OC(C)=O)[C@]5(CC)C=CCN6CC[C@]43[C@@H]65)C2)C1", "qualitativeLabel": "MET"}
{"smilesRecord": "c1ccc(CN(CC2=NCCN2)c2ccccc2)cc1", "qualitativeLabel": "NOT MET"}
{"smilesRecord": "Cc1c(Nc2ncccc2C(=O)O)cccc1C(F)(F)F", "qualitativeLabel": "NOT MET"}
{"smilesRecord": "O=C1CN2Cc3c(ccc(Cl)c3Cl)N=C2N1", "qualitativeLabel": "NOT MET"}
